Task for the reader: assign each of the following compounds its reported IC50.
Biological target: DRB5*01:01 (Homo sapiens, UniProt P01903+Q30154)
Test: biochemical
Where a SMILES comes first, the peptide text is derived from it.
Hi! Could you send only the number? It should be in µM, unit omitted.

Problem: Quickly give me recorded IC50 for CC[C@H](C)[C@H](NC(=O)[C@H](Cc1c[nH]cn1)NC(=O)[C@H](CCCCN)NC(=O)[C@H](CC(N)=O)NC(=O)[C@H](CC(C)C)NC(=O)[C@H](CC(C)C)NC(=O)[C@@H](NC(=O)[C@@H](NC(=O)[C@H](CCC(N)=O)NC(=O)[C@H](CC(=O)O)NC(=O)[C@H](CCCCN)NC(=O)[C@@H](N)Cc1ccccc1)C(C)C)[C@@H](C)CC)C(=O)N[C@@H](CC(=O)O)C(=O)N[C@@H](C)C(=O)N[C@@H](Cc1ccc(O)cc1)C(=O)O [Ncl_70] (H-FKDQVILLNKHIDAY-OH)
Solution: 0.168

Problem: Quickly give me recorded IC50 for CSCC[C@H](NC(=O)[C@H](CCCCN)NC(=O)[C@H](CO)NC(=O)[C@H](CCC(=O)O)NC(=O)[C@H](CC(C)C)NC(=O)[C@H](CCC(N)=O)NC(=O)[C@H](CC(N)=O)NC(=O)[C@H](CC(C)C)NC(=O)[C@H](CCCNC(=N)N)NC(=O)[C@H](CC(=O)O)NC(=O)[C@H](CC(C)C)NC(=O)[C@H](CC(C)C)NC(=O)[C@H](CC(C)C)NC(=O)[C@@H](N)CC(C)C)C(=O)N[C@@H](CO)C(=O)O [Ncl_45] (H-LLLLDRLNQLESKMS-OH)
Solution: 6.35

Problem: Quickly give me recorded IC50 for CC(C)C[C@H](NC(=O)[C@H](CCC(N)=O)NC(=O)[C@H](CC(N)=O)NC(=O)[C@H](CC(C)C)NC(=O)[C@H](CCCNC(=N)N)NC(=O)[C@H](CC(=O)O)NC(=O)[C@H](CC(C)C)NC(=O)[C@H](CC(C)C)NC(=O)[C@H](CC(C)C)NC(=O)[C@H](CC(C)C)NC(=O)[C@H](C)NC(=O)[C@H](CC(C)C)NC(=O)[C@H](C)NC(=O)[C@H](C)NC(=O)[C@@H](N)CC(=O)O)C(=O)O [Ncl_44] (H-DAALALLLLDRLNQL-OH)
Solution: 26.9

* * *

Molecular target: DRB1*15:01 (Homo sapiens, UniProt P01903+P01911)
Assay: biochemical
Where a SMILES comes first, the peptide text is derived from it.
Threshold 80 nM: IC50 strictly smaller gives MET, otherwise NOT MET.

Problem: Lab note: IC50 threshold 80 nM. Does this compound come in strictly under it? CC[C@H](C)[C@H](NC(=O)[C@H](CCC(N)=O)NC(=O)[C@H](CC(=O)O)NC(=O)[C@@H](N)CC(=O)O)C(=O)NCC(=O)N[C@@H](Cc1ccc(O)cc1)C(=O)N[C@@H](Cc1ccc(O)cc1)C(=O)N[C@@H](CCCNC(=N)N)C(=O)N[C@@H](CCCNC(=N)N)C(=O)N[C@@H](C)C(=O)N[C@H](C(=O)N[C@@H](CCCNC(=N)N)C(=O)N[C@@H](CCCNC(=N)N)C(=O)N[C@H](C(=O)N[C@@H](CCCNC(=N)N)C(=O)O)[C@@H](C)CC)[C@@H](C)O [Ncl_P17] (H-DDQIGYYRRATRRIR-OH)
Solution: NOT MET

Problem: Lab note: IC50 threshold 80 nM. Does this compound come in strictly under it? CC(C)C[C@H](NC(=O)[C@H](C)NC(=O)[C@@H](NC(=O)[C@H](Cc1ccccc1)NC(=O)[C@H](Cc1c[nH]c2ccccc12)NC(=O)[C@@H](N)CO)[C@@H](C)O)C(=O)N[C@H](C(=O)N[C@@H](CCC(N)=O)C(=O)N[C@@H](Cc1c[nH]cn1)C(=O)NCC(=O)N[C@@H](CCCCN)C(=O)N[C@@H](CCC(=O)O)C(=O)N[C@@H](CC(=O)O)C(=O)N[C@@H](CC(C)C)C(=O)N[C@@H](CCCCN)C(=O)O)[C@@H](C)O [Ncl_11] (H-SWFTALTQHGKEDLK-OH)
Solution: NOT MET

Problem: Lab note: IC50 threshold 80 nM. Does this compound come in strictly under it? CC[C@H](C)[C@H](NC(=O)CNC(=O)[C@H](CC(=O)O)NC(=O)[C@H](CCCCN)NC(=O)[C@H](CC(N)=O)NC(=O)[C@H](C)NC(=O)CNC(=O)[C@H](Cc1ccc(O)cc1)NC(=O)[C@@H]1CCCN1C(=O)[C@@H](N)CC(C)C)C(=O)N[C@H](C(=O)N[C@@H](Cc1c[nH]c2ccccc12)C(=O)N[C@H](C(=O)N[C@@H](C)C(=O)N[C@H](C(=O)O)[C@@H](C)O)C(C)C)[C@@H](C)CC [Ncl_25] (H-LPYGANKDGIIWVAT-OH)
Solution: NOT MET

Problem: Lab note: IC50 threshold 80 nM. Does this compound come in strictly under it? CC[C@H](C)[C@H](NC(=O)[C@H](Cc1c[nH]cn1)NC(=O)[C@H](CCCCN)NC(=O)[C@H](CC(N)=O)NC(=O)[C@H](CC(C)C)NC(=O)[C@H](CC(C)C)NC(=O)[C@@H](NC(=O)[C@@H](NC(=O)[C@H](CCC(N)=O)NC(=O)[C@H](CC(=O)O)NC(=O)[C@H](CCCCN)NC(=O)[C@@H](N)Cc1ccccc1)C(C)C)[C@@H](C)CC)C(=O)N[C@@H](CC(=O)O)C(=O)N[C@@H](C)C(=O)N[C@@H](Cc1ccc(O)cc1)C(=O)O [Ncl_70] (H-FKDQVILLNKHIDAY-OH)
Solution: MET

Problem: Lab note: IC50 threshold 80 nM. Does this compound come in strictly under it? CC[C@H](C)[C@H](NC(=O)[C@H](CCC(=O)O)NC(=O)[C@@H](N)CCCCN)C(=O)N[C@H](C(=O)N[C@H](C(=O)N[C@@H](C)C(=O)N[C@H](C(=O)N[C@@H](CO)C(=O)N[C@@H](CCCNC(=N)N)C(=O)N[C@H](C(=O)N[C@@H](CC(C)C)C(=O)N[C@@H](CO)C(=O)N[C@@H](Cc1ccc(O)cc1)C(=O)N[C@@H](Cc1ccc(O)cc1)C(=O)N[C@@H](CCCCN)C(=O)O)[C@@H](C)O)[C@@H](C)O)C(C)C)[C@@H](C)O [Mem_34] (H-KEITVATSRTLSYYK-OH)
Solution: MET

Problem: Lab note: IC50 threshold 80 nM. Does this compound come in strictly under it? CC(C)C[C@H](NC(=O)[C@H](CCC(N)=O)NC(=O)[C@H](CC(N)=O)NC(=O)[C@H](CC(C)C)NC(=O)[C@H](CCCNC(=N)N)NC(=O)[C@H](CC(=O)O)NC(=O)[C@H](CC(C)C)NC(=O)[C@H](CC(C)C)NC(=O)[C@H](CC(C)C)NC(=O)[C@H](CC(C)C)NC(=O)[C@H](C)NC(=O)[C@H](CC(C)C)NC(=O)[C@H](C)NC(=O)[C@H](C)NC(=O)[C@@H](N)CC(=O)O)C(=O)O [Ncl_44] (H-DAALALLLLDRLNQL-OH)
Solution: NOT MET
